- method.summary: Inhibition of recombinant GGTase 2 (unknown origin) by scintillation counting in presence of [3H]GGPP
- Parameters: species or system Homo sapiens
metric.name: IC50 (mM)

(1) CC(C)=CCC/C(C)=C/CC/C(C)=C/CCC(C)=CCn1cc(CC(P(=O)(O)O)P(=O)(O)O)nn1 (mixture of isomers)
(2) CC(C)=CCC/C(C)=C/CCC(C)=CCn1cc(CC(P(=O)(O)O)P(=O)(O)O)nn1 (mixture of isomers)
(3) O=P(O)(O)C(Cc1cn(Cc2ccccc2)nn1)P(=O)(O)O
Ask | Arrange these 3 compounds in increasing order of IC50. Returns: the labels arranged in the requested order.
Reply | 1, 2, 3

Reference for the values: ChEMBL document CHEMBL2311274
